- assay-text: in vivo
- particulars: mouse, in vivo, ip
Please respond with reported LD50 for every item in the list.
One number for each entry, in mg/kg.

COC1=C(C(=O)O)N2C(=O)[C@@H](NC(=O)[C@H](N)c3ccccc3)[C@H]2SC1 3800

Continue with the next compound.
For record "COC1=C(C(=O)O)N2C(=O)[C@@H](NC(=O)[C@H](N)C3=CCC=CC3)[C@H]2SC1" the listed LD50 is 7090

----------
- Tested on: Klebsiella pneumoniae 327
- assay-text: oral ED50, systemic infection in mice
- particulars: Klebsiella pneumoniae, 327, in Mus musculus, read-out: oral ED50
Kindly supply the reported ED50 values for the records listed here.
Report the figure along with its unit, number first.

Example entries and their recorded answers appear below.
compound	result
COC1=C(C(=O)O)N2C(=O)[C@@H](NC(=O)[C@H](N)C3=CCC=CC3)[C@H]2SC1 [compound I]	40 mg/kg
CC1=C(C(=O)O)N2C(=O)[C@@H](NC(=O)[C@H](N)C3=CCC=CC3)[C@H]2SC1 [cephradine]	250 mg/kg
COC1=C(C(=O)O)N2C(=O)[C@@H](NC(=O)[C@H](N)c3ccccc3)[C@H]2SC1 [compound II]	75 mg/kg

Please turn your attention to the following entry.
For reference, reported ED50 for CC1=C(C(=O)O)N2C(=O)[C@@H](NC(=O)[C@H](N)c3ccccc3)[C@H]2SC1 [cephalexin] stands at 105 mg/kg

Taken from patent US4073902A.
